Sourced from patent US10442810B2

target: UniProt Q06418
Sequence (Q06418 41-890): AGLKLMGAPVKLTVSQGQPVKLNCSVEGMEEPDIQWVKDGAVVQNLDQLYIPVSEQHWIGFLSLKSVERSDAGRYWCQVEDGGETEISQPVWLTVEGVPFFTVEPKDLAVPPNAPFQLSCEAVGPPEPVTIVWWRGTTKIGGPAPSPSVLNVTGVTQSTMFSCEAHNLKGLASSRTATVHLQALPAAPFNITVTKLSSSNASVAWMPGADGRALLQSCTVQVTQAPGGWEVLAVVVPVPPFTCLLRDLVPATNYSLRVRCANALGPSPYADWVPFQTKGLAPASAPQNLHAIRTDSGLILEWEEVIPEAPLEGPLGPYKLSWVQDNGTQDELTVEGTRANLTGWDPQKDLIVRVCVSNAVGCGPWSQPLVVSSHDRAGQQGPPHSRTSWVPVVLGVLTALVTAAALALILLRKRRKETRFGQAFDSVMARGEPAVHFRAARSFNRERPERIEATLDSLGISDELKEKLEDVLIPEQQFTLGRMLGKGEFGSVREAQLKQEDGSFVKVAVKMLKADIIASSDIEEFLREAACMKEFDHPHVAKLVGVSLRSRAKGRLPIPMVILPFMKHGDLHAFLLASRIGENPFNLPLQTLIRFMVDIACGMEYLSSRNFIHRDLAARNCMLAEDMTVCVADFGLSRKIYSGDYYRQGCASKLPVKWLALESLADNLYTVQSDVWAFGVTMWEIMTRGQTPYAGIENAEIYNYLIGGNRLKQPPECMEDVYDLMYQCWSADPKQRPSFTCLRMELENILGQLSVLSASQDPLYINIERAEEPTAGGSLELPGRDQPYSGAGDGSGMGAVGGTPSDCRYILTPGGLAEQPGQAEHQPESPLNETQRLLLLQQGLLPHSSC
pIC50: −log10 of the molar value.

{"columns": ["COMPOUND", "MEASURED_TARGET", "pIC50"],
 "data": [
  ["CC(O)Cn1cc(C(=O)Nc2ccc(-c3cc(C4CCN(C(=O)C5CC5)CC4)n4ncnc(N)c34)cc2)c(=O)n(-c2ccccc2)c1=O (racemic)", "UniProt Q06418", "< 7.00"]
]}

* * *

Here's what we have: IC50 numbers for Axl (Homo sapiens (Human), UniProt P30530).

{"columns": ["MOLECULE", "IC50"],
 "data": [
  ["CC(O)Cn1cc(C(=O)Nc2ccc(-c3cc(C4CCN(C(=O)C5CC5)CC4)n4ncnc(N)c34)cc2)c(=O)n(-c2ccccc2)c1=O (racemic)", "< 5 nM"],
  ["CC(=O)c1cc(C(=O)Nc2ccc(-c3cc(C4CCN(C(=O)C(C)C)CC4)n4ncnc(N)c34)cc2)c(=O)n(-c2ccccc2)c1C", "< 5 nM"]
]}
